Test name: qHTS assay for small molecule disruptors of the mitochondrial membrane potential (AID 720635)
Measurement conditions: HepG2 mitochondrial membrane potential, Mito-MPS dye ratio; series mostly up to 83.2 µM
Inconclusive results are not listed. Calls of active or inactive are those of the source. Calls come from the whole dose curve; as a rule, active = well fitted inhibition curve with a large enough effect in the signal ratio in the repeat runs; inconclusive = weak or mixed curves, or effect the other way; inactive = flat fitted curve, though single readings scatter; the % refers to the signal ratio.
I would appreciate it if you answered using one of these outcomes: true (active), false (inactive)

1) O=C(O)CCCCCCNC1c2ccccc2CCc2ccccc21 | false
2) CCC(OC(C)=O)C(CC(C)NC)(c1ccccc1)c1ccccc1 (centres undefined) | true
3) CCOP(=O)(OCC)Oc1cc(C)nc(C(C)C)n1 | false
4) S=C=Nc1ccccc1 | true

We now examine a further compound.
Input line: Field: outcome | Entry: "Oc1cccc(Cl)c1Cl"
Output line: true

----------
Test name: qHTS assay to identify small molecule agonists of the sonic hedgehog signaling (Shh) pathway - cell viability counter screen (AID 1259366); note: nearly all actives have a fitted effect of over 50% in size
Measurement conditions: NIH/3T3 Gli1-Luc viability, CellTiter-Fluor, 24 h; series mostly up to 92.4 µM
Inconclusive results are not listed. Activity calls are given as the source filed them. Calls follow the shape of the dose curve; as a rule, active = well fitted cell-killing curve with a large enough effect in the repeat runs; inconclusive = weak or mixed curves, or effect the other way; inactive = flat fitted curve, though single readings scatter.
I would appreciate it if you answered using one of these outcomes: 1 (yes) for active, 0 (no) for inactive

1) CCCCn1cc[n+](C)c1 (tested in a mixture with another compound) | 0 (no)
2) CCC[CH2][Sn]([CH2]CCC)([CH2]CCC)[O][Sn]([CH2]CCC)([CH2]CCC)[CH2]CCC | 1 (yes)
3) CC(C)c1c(CN(C)C(C)Cc2ccccc2)n(C)n(-c2ccccc2)c1=O (stereo not given) | 0 (no)
4) Brc1ccc(Oc2ccc(Br)cc2Br)c(Br)c1 | 0 (no)

Input line: Field: outcome | Entry: "CC1=C2C[C@H]3[C@@H](CC=C4C[C@@H](O)CC[C@@]43C)[C@@H]2CC[C@]12O[C@@H]1C[C@H](C)CN[C@H]1[C@H]2C"
Output line: 0 (no)

----------
Test name: qHTS RealTime-Glo MT Cell Viability Assay in HEK293 cells - 32 hour (AID 1224868); note: nearly all actives have a fitted effect of over 50% in size; note: potency is the fitted concentration of half-maximal effect
Measurement conditions: RealTime-Glo luminescence; series mostly up to 76.8 µM
Inconclusive results are not listed. The source made the active and inactive calls. The call rests on the fitted dose curve; in most records, active means well fitted cell-killing curve with a large enough effect in the repeat runs; inconclusive means weak or mixed curves, or effect the other way; inactive means flat fitted curve, though single readings scatter.
Measured endpoint: Potency

Here's what some known entries look like.
1. CO/N=C(\C(=O)OC)c1ccccc1CO/N=C(\C)c1cccc(C(F)(F)F)c1 | 12.3 µM (active)
2. CCCCCCC[CH2][Sn]([Cl])([Cl])[CH2]CCCCCCC | inactive
3. NC(=O)C(Cl)Cl | inactive
4. CC(O)C(=O)[O][Hg][c]1ccccc1 (stereo not given) | 0.977 µM (active)
5. c1ccc2nc(N3CCNCC3)ccc2c1 | inactive
6. CNC(=O)CSP(=O)(OC)OC | inactive

Input line: State, in one line, measured Potency of "CCCCCON=O"
Output line: inactive

Input line: State, in one line, measured Potency of "CNC(C)(C)Cc1ccccc1"
Output line: inactive

Input line: State, in one line, measured Potency of "C#CCO"
Output line: inactive

Input line: State, in one line, measured Potency of "c1ccc(N=NNc2ccccc2)cc1"
Output line: inactive

Input line: State, in one line, measured Potency of CN1[C@@H]2CC[C@H]1CC(O)C2 (stereo not given in full)
Output line: inactive

Input line: State, in one line, measured Potency of "[O-][Cl+3]([O-])([O-])O"
Output line: inactive

Input line: State, in one line, measured Potency of CCOP(=S)(NC(C)C)Oc1ccccc1C(=O)OC(C)C (stereo not given)
Output line: 43.6 µM (active)

Input line: State, in one line, measured Potency of COP(=S)(NC(C)C)Oc1ccc(C)cc1[N+](=O)[O-] (stereo not given)
Output line: inactive

Input line: State, in one line, measured Potency of "[O]=[Cr][O][Cr]=[O]"
Output line: inactive
